Assay: protein stability index of a GFP-peptide fusion (yeast GPS) (PSI 1-4); higher = more stable; sorted into four equal gates, so the index is relative within each strain
Conditions: ubr1∆
Here the recorded protein stability index is given for each entry.

{"polymerSequence": "SVDLEKLAFGLTKLNED [TAF14]", "protein stability index": 3.61}
{"polymerSequence": "LLKELSKNAQFICTTFR [SMC3]", "protein stability index": 1.94}
{"polymerSequence": "PQGFSSVERGRKRAHSL [REC8]", "protein stability index": 3.19}
{"polymerSequence": "KEYELLTLQEDYIKDEQ [RPT3]", "protein stability index": 3.25}
{"polymerSequence": "KSSVPGSAELRNSYPAS [RPN3]", "protein stability index": 3.25}
{"polymerSequence": "KKLPRKTHRGLRKVACI [RPL3]", "protein stability index": 3.23}
{"polymerSequence": "YKRQKSSLLYTYDENDD [ESC2]", "protein stability index": 1.21}
{"polymerSequence": "EENFEATRTLVASIQND [YCG1]", "protein stability index": 2.71}

* * *

Assay: protein stability index of a GFP-peptide fusion (yeast GPS) (PSI 1-4); higher = more stable; sorted into four equal gates, so the index is relative within each strain
Conditions: pdr5∆
Param threshold (3) applies to protein stability index; output Condition met when value >= threshold, Condition not met when value < threshold.

{"polymerSequence": "ECYKQLFLTAPDSCNMQ [YCS4]", "category": "Condition not met"}
{"polymerSequence": "EGDELENKTKKDNDKNL [SRB4]", "category": "Condition met"}
{"polymerSequence": "STVSGELNDNPAWFNNP [YMR153W/NUP53]", "category": "Condition met"}
{"polymerSequence": "IRAQNFKSALANLEDII [RRP6]", "category": "Condition not met"}
{"polymerSequence": "ARQRGKLKKSEEKVLST [SRP68]", "category": "Condition met"}
{"polymerSequence": "YNLRSLNLINAKLWFYI [RPN3]", "category": "Condition not met"}
{"polymerSequence": "VRFIGDSVAAIGIPVNK [QCR2]", "category": "Condition not met"}
{"polymerSequence": "TGAGAFGTGQSTFGFNN [YJL041W/NSP1]", "category": "Condition not met"}
{"polymerSequence": "AKLWFYIYLSHETLARS [RPN3]", "category": "Condition not met"}
{"polymerSequence": "PHIQKMLSILEIFKKGY [POP6]", "category": "Condition not met"}
{"polymerSequence": "YVAPTKKEYIELDILNK [SRB4]", "category": "Condition met"}

* * *

Test: protein stability index of a GFP-peptide fusion (yeast GPS) (PSI 1-4); higher = more stable; sorted into four equal gates, so the index is relative within each strain
Conditions: ubr1∆
Here the recorded protein stability index is given for each entry.

{"polymerSequence": "YQSPTIFKIVQSRLMST [MED6]", "protein stability index": 1.96}
{"polymerSequence": "KNDNIKKSVNKLDKQIN [POP6]", "protein stability index": 2.78}
{"polymerSequence": "TIAKQVLNGQKIVVVRA [RPL16B]", "protein stability index": 2.6}
{"polymerSequence": "NFIVHSPMLKRIKITAN [GRR1]", "protein stability index": 1.19}
{"polymerSequence": "DFYVVMNRPGARVTRRK [RPL11A]", "protein stability index": 3.32}
{"polymerSequence": "QLFHSMSIVFGDKFSED [UBP6]", "protein stability index": 1.38}
{"polymerSequence": "PVAKWFVKFITYLTQEI [SIN4]", "protein stability index": 2.07}
{"polymerSequence": "VPDSKIRIYDLGKKKAT [RPL10]", "protein stability index": 1.05}
{"polymerSequence": "VDIGGKQHAVLMLGSVN [RRP4]", "protein stability index": 2.6}
{"polymerSequence": "QDRHVIFLAERRILPKP [RPS7A]", "protein stability index": 2.73}
{"polymerSequence": "GSIPSLTTQFVTDKYTA [YDL088C/ASM4]", "protein stability index": 2.58}
{"polymerSequence": "CGFWQPAWRVWLNFLRG [PRP8]", "protein stability index": 2.35}
{"polymerSequence": "RTKNLVSKMEKAEKTLK [SMC4]", "protein stability index": 3.09}
{"polymerSequence": "SDNSEEEEVDIDMDKLN [RRP43]", "protein stability index": 3.11}
{"polymerSequence": "KLLFQELMAMNITPRLY [RPB2]", "protein stability index": 1.43}
